Molecular target: KOR(Kappa opioid receptor) (Homo sapiens)
Construct: expressed in transfected cells
Sequence (P41145 whole entry): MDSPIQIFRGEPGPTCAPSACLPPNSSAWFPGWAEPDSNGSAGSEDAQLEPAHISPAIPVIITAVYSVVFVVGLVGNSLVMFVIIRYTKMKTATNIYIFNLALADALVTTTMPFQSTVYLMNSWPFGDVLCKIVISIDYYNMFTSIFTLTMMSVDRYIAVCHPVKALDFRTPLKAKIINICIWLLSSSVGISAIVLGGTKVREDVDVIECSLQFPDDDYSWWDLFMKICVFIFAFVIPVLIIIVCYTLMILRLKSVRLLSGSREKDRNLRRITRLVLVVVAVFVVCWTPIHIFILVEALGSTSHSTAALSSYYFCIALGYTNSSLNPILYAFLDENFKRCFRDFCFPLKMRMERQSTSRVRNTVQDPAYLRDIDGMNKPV
Assay: cAMP agonistic activity assay, KOR stably transfected cell line
Format: cell-based
Settings: agonistic effect, cAMP assay, κ opioid receptor; read-out: EC50 κ
measurement-name: EC50 (µM)
Numbers only, in µM.

c1ccc([C@]2(CCNCc3coc4ccc(O[C@@H]5CCOC5)cc34)CCOC3(CCCC3)C2)nc1 | 56.8

Attention now turns to another entry.
Endpoint output: EC50 of `Fc1ccc([C@]2(CCNCc3ccccc3-c3ccncc3)CCOC3(CCCC3)C2)cc1` . Value?
54.5

====

Target: MOR (Mu opioid Receptor) (Homo sapiens, UniProt P35372)
Construct: expressed in transfected cells
Sequence (P35372 whole entry, species assumed): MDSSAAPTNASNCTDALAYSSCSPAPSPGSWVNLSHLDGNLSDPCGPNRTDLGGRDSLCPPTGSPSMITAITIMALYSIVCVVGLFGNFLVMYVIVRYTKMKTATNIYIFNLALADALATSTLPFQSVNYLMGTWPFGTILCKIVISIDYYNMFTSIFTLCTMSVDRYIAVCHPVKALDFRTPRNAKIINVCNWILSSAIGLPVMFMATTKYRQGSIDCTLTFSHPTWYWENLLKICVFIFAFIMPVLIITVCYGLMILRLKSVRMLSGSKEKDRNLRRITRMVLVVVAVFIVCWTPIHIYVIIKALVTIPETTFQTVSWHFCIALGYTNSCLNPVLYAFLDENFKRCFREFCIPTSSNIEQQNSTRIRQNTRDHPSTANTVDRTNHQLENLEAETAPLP
Experiment: cAMP agonistic activity assay, MOR stably transfected cell line
Assay type: cell-based
Conditions: agonistic effect, cAMP assay, μ opioid receptor; read-out: EC50 μ
measurement-name: pEC50
Give bare numbers, as −log10 of the molar value.

c1ccc([C@]2(CCNCc3coc4ccc(O[C@@H]5CCOC5)cc34)CCOC3(CCCC3)C2)nc1 [Example 3] | 9.25

Now look at this one.
Fill blank: measured pEC50 of the molecule Fc1ccc([C@]2(CCNCc3ccccc3-c3ccncc3)CCOC3(CCCC3)C2)cc1 [Example 4] is ____.
8.35

====

Test: Pharmacokinetic test after single tail vein injection
Format: in vivo
Settings: SD (Sprague-Dawley), rat, plasma, iv; SD rats, single tail vein injection 2 mg/kg, n = 3
measurement-name: half-life

Example cases with answers are listed next.
c1ccc([C@]2(CCNCc3coc4ccccc34)CCOC3(CCCC3)C2)nc1 [Example 2] | 2.29 h
Fc1ccc([C@]2(CCNCc3ccccc3-c3ccncc3)CCOC3(CCCC3)C2)cc1 [Example 4] | 3.23 h

Could you report half-life for every entry in the following list?
1. COc1ccc2occ(CNCC[C@@]3(c4ccccn4)CCOC4(CCCC4)C3)c2c1 [Example 1]
2. COc1ccsc1CNCC[C@@]1(c2ccccn2)CCOC2(CCCC2)C1 [TRV130, oliceridine, reference compound]
3. c1ccc([C@]2(CCNCc3coc4ccc(O[C@@H]5CCOC5)cc34)CCOC3(CCCC3)C2)nc1 [Example 3]

1: 3.17 h; 2: 0.94 h; 3: 2.95 h

====

Experiment: Pharmacokinetic test after single tail vein injection
Format: in vivo
Conditions: SD (Sprague-Dawley), rat, plasma, iv; SD rats, single tail vein injection 2 mg/kg, n = 3
Given measured Cmax, output Met if it is greater than or equal to 500 ng/mL and Not met if not.

Study these solved cases before continuing.
c1ccc([C@]2(CCNCc3coc4ccc(O[C@@H]5CCOC5)cc34)CCOC3(CCCC3)C2)nc1 | Met
Fc1ccc([C@]2(CCNCc3ccccc3-c3ccncc3)CCOC3(CCCC3)C2)cc1 | Met
COc1ccc2occ(CNCC[C@@]3(c4ccccn4)CCOC4(CCCC4)C3)c2c1 | Met
c1ccc([C@]2(CCNCc3coc4ccccc34)CCOC3(CCCC3)C2)nc1 | Not met

Now look at this one.
Determine whether this compound has Cmax no lower than 500 ng/mL: COc1ccsc1CNCC[C@@]1(c2ccccn2)CCOC2(CCCC2)C1 [TRV130, oliceridine, reference compound]
Not met

====

Test system: colonic motility (glass bead expulsion) in mice
Experiment: Mouse colonic glass bead expulsion time test
Format: in vivo
Details: C57BL/6 mice, 1 mg/kg single tail vein injection, beads inserted 20 min after administration, limit 120 min, Mean ± S.E.M., n = 10
measurement-name: Mean Expulsion Time

Look over these answered cases.
COc1ccsc1CNCC[C@@]1(c2ccccn2)CCOC2(CCCC2)C1 [TRV130, oliceridine, reference compound] | 37.57 ± 4.31^※※ min
c1ccc([C@]2(CCNCc3coc4ccc(O[C@@H]5CCOC5)cc34)CCOC3(CCCC3)C2)nc1 | 18.99 ± 6.55^※※♦♦ min
c1ccc([C@]2(CCNCc3coc4ccccc34)CCOC3(CCCC3)C2)nc1 | 25.85 ± 5.88^※※♦ min
COc1ccc2occ(CNCC[C@@]3(c4ccccn4)CCOC4(CCCC4)C3)c2c1 | 17.40 ± 5.84^※※♦♦ min

Let us move to another entry and its Mean Expulsion Time.
Please report the recorded Mean Expulsion Time for `Fc1ccc([C@]2(CCNCc3ccccc3-c3ccncc3)CCOC3(CCCC3)C2)cc1` .
19.13 ± 3.93^※※♦♦ min

====

Could you please report measured pEC50 for the items listed next?
Biological target: DOR (Delta Opioid Receptor) (Homo sapiens)
Construct: expressed in transfected cells
Sequence (P41143 whole entry): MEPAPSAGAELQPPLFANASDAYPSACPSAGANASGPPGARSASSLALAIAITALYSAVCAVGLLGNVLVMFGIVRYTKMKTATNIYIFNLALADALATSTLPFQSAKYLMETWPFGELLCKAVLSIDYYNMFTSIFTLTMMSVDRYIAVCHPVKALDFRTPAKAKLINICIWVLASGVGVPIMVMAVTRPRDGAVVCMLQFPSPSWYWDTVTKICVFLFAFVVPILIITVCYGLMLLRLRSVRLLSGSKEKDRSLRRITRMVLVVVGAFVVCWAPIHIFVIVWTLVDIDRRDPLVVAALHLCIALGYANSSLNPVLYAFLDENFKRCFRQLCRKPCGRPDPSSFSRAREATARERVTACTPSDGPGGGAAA
Assay: cAMP agonistic activity assay, DOR stably transfected cell line
Assay type: cell-based
Conditions: agonistic effect, cAMP assay, δ opioid receptor; read-out: EC50 δ
Answers are plain numbers, as −log10 of the molar value.

Fc1ccc([C@]2(CCNCc3ccccc3-c3ccncc3)CCOC3(CCCC3)C2)cc1 | 4.37

Kindly consider the entry below.
Bench note: what pEC50 did `c1ccc([C@]2(CCNCc3coc4ccc(O[C@@H]5CCOC5)cc34)CCOC3(CCCC3)C2)nc1` show?
4.49

====

Assay: Pharmacokinetic test after single tail vein injection
Assay type: in vivo
Details: SD (Sprague-Dawley), rat, plasma, iv; SD rats, single tail vein injection 2 mg/kg, n = 3
measurement-name: Tmax (min)
Answers are plain numbers, in min.

COc1ccsc1CNCC[C@@]1(c2ccccn2)CCOC2(CCCC2)C1 [TRV130, oliceridine, reference compound] | 8.4
COc1ccc2occ(CNCC[C@@]3(c4ccccn4)CCOC4(CCCC4)C3)c2c1 | 6.6
Fc1ccc([C@]2(CCNCc3ccccc3-c3ccncc3)CCOC3(CCCC3)C2)cc1 | 10.8
c1ccc([C@]2(CCNCc3coc4ccccc34)CCOC3(CCCC3)C2)nc1 | 9

Then there is this compound:
Give the measured Tmax of `c1ccc([C@]2(CCNCc3coc4ccc(O[C@@H]5CCOC5)cc34)CCOC3(CCCC3)C2)nc1` .
9

====

Tested on: colonic motility (glass bead expulsion) in mice
Assay: Mouse colonic glass bead expulsion time test
Assay type: in vivo
Details: C57BL/6 mice, 1 mg/kg single tail vein injection, relative to solvent control, n = 10
# label = yes if Expulsion Time Prolonging Rate (ETPR) < 400% else no

The following compounds have reported results that may help.
COc1ccc2occ(CNCC[C@@]3(c4ccccn4)CCOC4(CCCC4)C3)c2c1 | yes
c1ccc([C@]2(CCNCc3coc4ccc(O[C@@H]5CCOC5)cc34)CCOC3(CCCC3)C2)nc1 | yes
Fc1ccc([C@]2(CCNCc3ccccc3-c3ccncc3)CCOC3(CCCC3)C2)cc1 | yes

Hi there! Is Expulsion Time Prolonging Rate (ETPR) for `c1ccc([C@]2(CCNCc3coc4ccccc34)CCOC3(CCCC3)C2)nc1` below 400%, do you know?
no

Check if Expulsion Time Prolonging Rate (ETPR) falls below 400% for COc1ccsc1CNCC[C@@]1(c2ccccn2)CCOC2(CCCC2)C1 [TRV130, oliceridine, reference compound] .
no

====

Biological target: KOR(Kappa opioid receptor) (Homo sapiens)
Construct: expressed in transfected cells
Test: cAMP agonistic activity assay, KOR stably transfected cell line
Type: cell-based
measurement-name: EC50 (µM)
Numbers only, in µM.

COc1ccc2occ(CNCC[C@@]3(c4ccccn4)CCOC4(CCCC4)C3)c2c1 [Example 1] | 51.4
c1ccc([C@]2(CCNCc3coc4ccccc34)CCOC3(CCCC3)C2)nc1 [Example 2] | 39.8

Please examine the following record next.
Form field - read-out: EC50; system: KOR(Kappa opioid receptor) (Homo sapiens); submitted item: COc1ccsc1CNCC[C@@]1(c2ccccn2)CCOC2(CCCC2)C1 [TRV130, oliceridine, reference compound]
5.77

====

Test system: colonic motility (glass bead expulsion) in mice
Assay: Mouse colonic glass bead expulsion time test
Type: in vivo
Conditions: C57BL/6 mice, 1 mg/kg single tail vein injection, n = 10
measurement-name: Percent Maximum Possible Effect (Percent MPE) (%)
Numbers only, in %.

Example cases with answers are listed next.
c1ccc([C@]2(CCNCc3coc4ccccc34)CCOC3(CCCC3)C2)nc1 | 18.83
COc1ccsc1CNCC[C@@]1(c2ccccn2)CCOC2(CCCC2)C1 [TRV130, oliceridine, reference compound] | 28.93
COc1ccc2occ(CNCC[C@@]3(c4ccccn4)CCOC4(CCCC4)C3)c2c1 | 11.55
Fc1ccc([C@]2(CCNCc3ccccc3-c3ccncc3)CCOC3(CCCC3)C2)cc1 | 13.04

Requested field: Percent Maximum Possible Effect (Percent MPE). Item: `c1ccc([C@]2(CCNCc3coc4ccc(O[C@@H]5CCOC5)cc34)CCOC3(CCCC3)C2)nc1`
12.91

====

Target: MOR (Mu opioid Receptor) (Homo sapiens, UniProt P35372)
Construct: expressed in transfected cells
Assay: cAMP agonistic activity assay, MOR stably transfected cell line
Assay type: cell-based
Conditions: ratio of EC50 to TRV130
Procedure: 1. Test purpose: to detect the agonistic activity of compound samples utilizing MOR (Mu opioid Receptor), KOR(Kappa opioid receptor), and DOR (Delta Opioid Receptor) stably transfected cell lines and using the established cAMP assay detection platform. a. All samples were dissolved with DMSO to a storage concentration of 30 mM. b. A sample dilution sequence was prepared on a 384-well LDV plate. […] f. The test plates were read on the Envision after being left for 60 minutes at room temperature.
measurement-name: EC50 against μ receptor relative to that of TRV130

COc1ccc2occ(CNCC[C@@]3(c4ccccn4)CCOC4(CCCC4)C3)c2c1 | about 1/10
Fc1ccc([C@]2(CCNCc3ccccc3-c3ccncc3)CCOC3(CCCC3)C2)cc1 | about 1/10
c1ccc([C@]2(CCNCc3coc4ccc(O[C@@H]5CCOC5)cc34)CCOC3(CCCC3)C2)nc1 | about 1/10

These entries and their values trace back to patent US20230096978A1.
